# Test system: mammalian cells
# assay-name: Arrayed SSAP library screening, cell viability by live cell counts via flow cytometry
# Assay type: cell-based
endpoint: Cell Viability (Average, two targets)

INSERT INTO assay_data (molecule, readout_value) VALUES
  ('SSAP_16: SEQ ID NO: 185 (protein) MAKENYSDPNGKLLNSITTFEVNGEEVKLSGNIIRDYLVSGNAEVTDQEIIMFLQLCKYQKLNPFLNEAYLVKFKNTKGPDKPAQIIVSKEAFMKRAETHEQYDGFEAGVIVERGGEIIELEGAVSLASDKLLGGWAKVFRKDRNRPVSVRISEKEFNKRQSTWNTMPLTMMRKTAVVNAMREAFPDNLGAMYTEEEQGSLQNTETSVQQEIKQNANAEVLDIPSQQNEVPDFKEVREPEHVEMPPIYGEQQSTPPARPY', 1.146),
  ('SSAP_197: SEQ ID NO: 366; Arsenophonus sp. ENCA (protein, listed as Arsenophonus sp.) NTELETMNNVYDNLQSVIMQQGIAALLPAQVTPEQFTRTAATALIENVDLQNADKQSLVLALTRCAKDGLMPDGREAALVVRSTKVNKQFVKKAVYMPMVDGVIKRARQSGQVANIIAKVVYSQDEFEYVIDENGEHLTHRPAFVDGDDIVKVYAFAKLNSGELVVEVMSRAGVEKIRDTVQSAKYDSSPWVKWFDRMALKTVIHRLARRLPCASELFSLFEVYEDANSTEKTLRMAPASFKRLSIN', 1.021);
